Measured protein stability index values are reported for all entries that follow.
System: Saccharomyces cerevisiae
METHOD_SUMMARY: protein stability index of tFT-peptide fusion (C-terminal peptide) (PSI (0-1 scale)); higher = more stable (slower turnover);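 further: PSI is a weighted mean of sequencing reads over stability bins, variants kept only with over 10 reads, mCherry proximal and sfGFP distal, peptide attached via GGGS linker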
CONDITIONS: genetic background: doa10 deletion; temperature: 30 C
API doc: respond with a numeric literal and nothing else, no unit.

Check out these entries, answers already filled in.
Notebook entry, Saccharomyces cerevisiae assay: protein stability index of CICAFCSLNLLC = ? 0.289

Notebook entry, Saccharomyces cerevisiae assay: protein stability index of DVWEHLHKQHNM = ? 0.274

Let us examine a further case.
Notebook entry, Saccharomyces cerevisiae assay: protein stability index of NVALHPGVPRKC = ? 0.664

---

Test system: Saccharomyces cerevisiae
METHOD_SUMMARY: protein stability index of tFT-peptide fusion (C-terminal peptide) (PSI (0-1 scale)); higher = more stable (slower turnover)
CONDITIONS: genetic background: wild type; temperature: 30 C
Measured protein stability index values are reported for all entries that follow.
API doc: respond with a numeric literal and nothing else, no unit.

Notebook entry, Saccharomyces cerevisiae assay: protein stability index of EDSGRPGRPSTH = ? 0.662

Notebook entry, Saccharomyces cerevisiae assay: protein stability index of LGGGGPSVREGE = ? 0.679

Others:
Notebook entry, Saccharomyces cerevisiae assay: protein stability index of FPLLCAAPLLSS = ? 0.594

Notebook entry, Saccharomyces cerevisiae assay: protein stability index of PLTPPPALILFP = ? 0.693

Notebook entry, Saccharomyces cerevisiae assay: protein stability index of PPLLRSPPPLSP = ? 0.675

Notebook entry, Saccharomyces cerevisiae assay: protein stability index of LEFMTENSCACV = ? 0.652

Notebook entry, Saccharomyces cerevisiae assay: protein stability index of SIVDLFRLRSLS = ? 0.374

Notebook entry, Saccharomyces cerevisiae assay: protein stability index of VSPTRSRPSSPA = ? 0.692

Notebook entry, Saccharomyces cerevisiae assay: protein stability index of CCCGSGFFLLKV = ? 0.525

Notebook entry, Saccharomyces cerevisiae assay: protein stability index of SPSPPPRTPPPL = ? 0.689

Notebook entry, Saccharomyces cerevisiae assay: protein stability index of QVGGVRSRGAAG = ? 0.664

Notebook entry, Saccharomyces cerevisiae assay: protein stability index of STICQRSTSGKG = ? 0.657

Notebook entry, Saccharomyces cerevisiae assay: protein stability index of CPGVLVLMCGRP = ? 0.589

Notebook entry, Saccharomyces cerevisiae assay: protein stability index of WGAGGGVWWGGV = ? 0.704

---

System: Saccharomyces cerevisiae
METHOD_SUMMARY: protein stability index of tFT-peptide fusion (C-terminal peptide) (PSI (0-1 scale)); higher = more stable (slower turnover)
CONDITIONS: genetic background: wild type; temperature: 30 C
Please note: Criterion met applies when protein stability index is 0.6 or greater, and Criterion not met applies otherwise.

Identify whether the reported protein stability index of the following sequence is 0.6 or greater: GVQEGGGVARGG Criterion met

Identify whether the reported protein stability index of the following sequence is 0.6 or greater: VGSSSRSLFWCF Criterion met

Identify whether the reported protein stability index of the following sequence is 0.6 or greater: LPAWSYPSGWLL Criterion met

Identify whether the reported protein stability index of the following sequence is 0.6 or greater: IFVTLGWARMRY Criterion met

Identify whether the reported protein stability index of the following sequence is 0.6 or greater: PLTEELCFSAWG Criterion met

Identify whether the reported protein stability index of the following sequence is 0.6 or greater: PGRVAGGCGVLG Criterion met

Others:
Identify whether the reported protein stability index of the following sequence is 0.6 or greater: GLLGRCPVVVFG Criterion not met

Identify whether the reported protein stability index of the following sequence is 0.6 or greater: CKNRLKMKQESK Criterion met

Identify whether the reported protein stability index of the following sequence is 0.6 or greater: KVSATIISFENI Criterion met

Identify whether the reported protein stability index of the following sequence is 0.6 or greater: VDRDWFLKRDSH Criterion met

Identify whether the reported protein stability index of the following sequence is 0.6 or greater: LCLRRLSCVGFG Criterion not met

Identify whether the reported protein stability index of the following sequence is 0.6 or greater: FTISALSSTPRP Criterion met

Identify whether the reported protein stability index of the following sequence is 0.6 or greater: GRVSGDRFIVIV Criterion not met

Identify whether the reported protein stability index of the following sequence is 0.6 or greater: KKEKYIQIRTID Criterion met

Identify whether the reported protein stability index of the following sequence is 0.6 or greater: ADAKVGVIWVAL Criterion met

Identify whether the reported protein stability index of the following sequence is 0.6 or greater: VTHDSACSSRLA Criterion met

Identify whether the reported protein stability index of the following sequence is 0.6 or greater: LAPPPARLPLSP Criterion met
